# test-method-notes: Residual parent lipid levels in the liver of mice (hEPO mRNA LNP)
# Assay type: in vivo
# run-conditions: CD-1 mice
Measured Parent Lipid Remaining at 24 h values are reported for all entries that follow.
Give the value, in units of nmol/g liver tissue, as a plain number.

Previously resolved entries follow.
molecule | Parent Lipid Remaining at 24 h, nmol/g liver tissue
CCCCCCCCC(CCCCCCCC)OC(=O)CCCCCCCN(CCO)CCCCCCCC(=O)OCCC(CCCC)CCCCCC (stereo not drawn) | 0.3
CCCCC(CCCC)OC(=O)CCCCCCCN(CCCCCCCC(=O)OCCC(CCC)CCC)CCCNc1c(NC)c(=O)c1=O | 0.1

For the next question, use this molecule.
Looking for the measured Parent Lipid Remaining at 24 h of CCCCCCCC(CCCCCCC)OC(=O)CCCCCCCN(CCCCCCCC(=O)OCCC(CCC)CCC)CCCNc1c(NC)c(=O)c1=O , can you help?
8.9

The reported measurements were obtained from patent US20240207374A1.
